- target-desc: CYP2D6 (Homo sapiens)
- Construct: tissue BD-Gentest 452117; host or cells: human liver microsomes
- Sequence (P10635 whole entry): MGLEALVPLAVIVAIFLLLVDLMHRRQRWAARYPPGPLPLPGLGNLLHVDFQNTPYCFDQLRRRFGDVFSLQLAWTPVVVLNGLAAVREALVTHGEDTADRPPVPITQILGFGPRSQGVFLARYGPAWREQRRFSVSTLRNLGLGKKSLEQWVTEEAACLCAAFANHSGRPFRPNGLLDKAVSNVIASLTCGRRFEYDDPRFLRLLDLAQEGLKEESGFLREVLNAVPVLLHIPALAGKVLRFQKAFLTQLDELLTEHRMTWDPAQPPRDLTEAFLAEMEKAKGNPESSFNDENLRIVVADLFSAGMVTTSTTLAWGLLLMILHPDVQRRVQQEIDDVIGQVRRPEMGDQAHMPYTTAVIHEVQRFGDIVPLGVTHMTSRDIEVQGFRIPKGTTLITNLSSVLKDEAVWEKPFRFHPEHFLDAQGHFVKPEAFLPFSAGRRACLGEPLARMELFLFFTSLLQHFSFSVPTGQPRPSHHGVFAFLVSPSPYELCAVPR
- assay-info: CYP inhibition assay in human liver microsome, CYP2D6
- Assay type: in vitro ADME
- test-conditions: percentage inhibition, substrate Dextromethorphan 5 μM, <0: not or weak inhibitor
property-measured: CYP (%) 2D6

(I) C[C@@H]1CN(c2ccc(C#N)n3nccc23)C[C@H](CN2CC3(C2)OCc2cc(N4CC5(CNCCO5)C4)ccc23)O1
(II) [2H]c1ccc2c(N3C[C@H](CN4CC5(C4)OCc4cc(N6CC(C)(N)C6)cnc45)O[C@H](C)C3)ccc(C#N)c2n1
(III) [2H]c1ccc2c(N3C[C@H](CN4CC5(C4)OCc4cc(N6CC(N)C6)cnc45)O[C@H](C)C3)ccc(C#N)c2n1
(IV) C[C@@H]1CN(c2ccc(C#N)n3ncc(F)c23)C[C@H](CN2CC3(C2)OCc2cc(N4CC(C)(N)C4)ncc23)O1
(V) C[C@@H]1CN(c2ccc(C#N)c3ncccc23)C[C@H](CN2CCN(c3ccncc3)CC2)O1 [ER-888286, reference compound]
Query :: List from greatest to least CYP (%) 2D6. Your task in answering is to list the labels in the requested order.
Result :: V, III, II, IV, I
(V: 52.5%, III: 13%, II: 5%, IV: 3.5%, I: −2%)

---

- target-desc: CYP2D6 (Homo sapiens)
- Construct: tissue BD-Gentest 452117; host or cells: human liver microsomes
- assay-info: CYP inhibition assay in human liver microsome, CYP2D6
- Type: in vitro ADME
- test-conditions: percentage inhibition, substrate Dextromethorphan 5 μM, <0: not or weak inhibitor
property-measured: CYP (%) 2D6

[2H]c1ccc2c(N3C[C@H](CN4CC5(C4)OCc4cc(N6CC(C)(N)C6)ccc45)O[C@H](C)C3)ccc(C#N)c2n1    5.5

(P) C[C@@H]1CN(c2ccc(C#N)n3nccc23)C[C@H](CN2CC3(C2)OCc2cc(N4CC5(CN(C)C5)C4)ccc23)O1
(Q) [2H]c1ccc2c(N3C[C@H](CN4CC5(C4)OCc4cc(N6C[C@H]7NCCO[C@@H]7C6)ccc45)O[C@H](C)C3)ccc(C#N)c2n1
Query :: // which entry reports the smaller CYP (%) 2D6, P or Q ? Choose, then provide that item's label.
Result :: P
